studySystem: UniProt:P11766
Sequence (P11766 whole entry): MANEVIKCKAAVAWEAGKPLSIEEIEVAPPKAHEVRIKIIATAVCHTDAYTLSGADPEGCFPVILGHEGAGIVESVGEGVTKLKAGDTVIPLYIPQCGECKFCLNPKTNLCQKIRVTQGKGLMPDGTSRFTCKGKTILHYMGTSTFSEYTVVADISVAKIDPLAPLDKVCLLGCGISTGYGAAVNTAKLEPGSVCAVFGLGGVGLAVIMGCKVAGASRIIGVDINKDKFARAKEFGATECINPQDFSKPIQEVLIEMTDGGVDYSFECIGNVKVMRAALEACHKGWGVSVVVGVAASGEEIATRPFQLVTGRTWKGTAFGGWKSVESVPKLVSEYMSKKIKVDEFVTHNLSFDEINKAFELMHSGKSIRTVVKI
experimentalProtocol: GSNOR inhibition assay (rate of NADH consumption, 340 nm absorbance)
Format: biochemical
experimentalConditions: Table 2a; test compound 20 μM; pH 7.4, 25° C.; read-out: % Inhibit. at 20 μM
recordedEndpoint: inhibition at 20 µM (%)
One number for each entry, in %.

Please review the entries below; each comes with its answer.
NC(=O)CCn1c2ccc(-n3ccnc3)cc2c2cc(F)c(C(=O)O)cc21 [Compound E1]
18
NC(=O)CCn1c2ccc(-n3ccnc3)cc2c2ccc(C(=O)O)cc21 [Compound 10]
85
NC(=O)c1ccc(-n2c3cc(CNc4ncco4)ccc3c3ccc(C(=O)O)cc32)c([N+](=O)[O-])c1 [Compound I1]
0
NC(=O)CCn1c2ccc(-n3ccnc3)cc2c2ccc(CCC(=O)O)cc21 [Compound 17]
92.8
NC(=O)c1ccc(-n2c3cc(Cn4ccnc4)ccc3c3ccc(C(=O)O)cc32)c([N+](=O)[O-])c1 [Compound 16]
89
N#Cc1ccc(-n2c3cc(CNc4ncco4)ccc3c3ccc(C(=O)O)cc32)c([N+](=O)[O-])c1 [Compound H1]
0

Give me inhibition at 20 µM for each of these molecules, listed below.
1. N#Cc1ccc(-n2c3cc(CNc4nccs4)ccc3c3ccc(C(=O)O)cc32)c([N+](=O)[O-])c1 [Compound G1]
2. NC(=O)CCn1c2cc(Cn3ccnc3)ccc2c2ccc(C(=O)O)cc21 [Compound 8]

1. 15
2. 80

Which measured inhibition at 20 µM belongs to NC(=O)c1ccc(-n2c3cc(CNc4nccs4)ccc3c3ccc(C(=O)O)cc32)c([N+](=O)[O-])c1 [Compound J1] , tested on UniProt:P11766?
9
